Data credit: ChEMBL document CHEMBL5032510

Assay: MRT (0 to t) in CD-1 mouse at 10 mg/kg, po by LC-MS/MS analysis
Assay type: ADME, organism-based
Conditions: in vivo
measured-property: MRT last (h)
One number for each entry, in h.

## Input Any idea what MRT last was measured for `COc1ccc(OC)c(NC(=O)c2sc(=S)n(-c3ccc(C(F)(F)F)cc3)c2NC(=O)CCl)c1` ?
## Output 5.62

---

Experiment: AUC (0 to t) in CD-1 mouse at 1 mg/kg, iv by LC-MS/MS analysis
Format: ADME, organism-based
Set-up: dose 1 mg/kg
Settings: in vivo
measured-property: AUC(0-t) (ng·h/mL)
Give bare numbers, in ng·h/mL.

## Input Any idea what AUC(0-t) was measured for `COc1ccc(OC)c(NC(=O)c2sc(=S)n(-c3ccc(C(F)(F)F)cc3)c2NC(=O)CCl)c1` ?
## Output 1010
